system.tested: HLA-B*58:01
assay.details: IEDB peptide-MHC binding, purified MHC/direct/fluorescence; filed as Kd, often an IC50 or EC50 that approximates it; bounds were set here for any values at or beyond the usual limits of such assays
experimental.parameters: source organism: Pseudomonas aeruginosa UCBPP-PA14
pKd: −log10 of the molar value.
parameter: pKd

sequence.string: GLGGDASAY
result: ≤ 4.70

###

system.tested: HLA-B*15:01
assay.details: IEDB peptide-MHC binding, purified MHC/competitive/radioactivity; filed as Kd, often an IC50 or EC50 that approximates it; bounds were set here for any values at or beyond the usual limits of such assays
experimental.parameters: source organism: Dengue virus 3 Martinique/1243/1999
parameter: Kd (nM)

sequence.string: IQNSGGTSI
result.number: 25.7

sequence.string: LQWIASAIVL
result.number: 6.43

sequence.string: NSKNTSMSF
result.number: 526

###

Let's look at some sequences and their measured pKd.
system.tested: HLA-A*02:16
assay.details: IEDB peptide-MHC binding, purified MHC/direct/fluorescence; filed as Kd, often an IC50 or EC50 that approximates it; bounds were set here for any values at or beyond the usual limits of such assays
experimental.parameters: source organism: Zaire ebolavirus
pKd: −log10 of the molar value.

sequence.string: KRLQILGYL
pKd: ≤ 4.70
--
sequence.string: KTNDFAPAW
pKd: ≤ 4.70
--
sequence.string: KCNPNLHYW
pKd: ≤ 4.70

###

system.tested: HLA-A*02:01
assay.details: IEDB peptide-MHC binding, purified MHC/competitive/radioactivity; filed as Kd, often an IC50 or EC50 that approximates it; bounds were set here for any values at or beyond the usual limits of such assays
experimental.parameters: source organism: Dengue virus 2 Jamaica/1409/1983
Let's look at some sequences and their measured Kd.

sequence.string: LLLLTLLATV
Kd [nM]: 64.6
--
sequence.string: TAAAWYLWEV
Kd [nM]: 10.3
--
sequence.string: SIILEFFLIV
Kd [nM]: 29.9
--
sequence.string: LTAALLLLV
Kd [nM]: 5760

###

system.tested: HLA-A*02:02
assay.details: IEDB peptide-MHC binding, purified MHC/competitive/radioactivity; filed as Kd, often an IC50 or EC50 that approximates it; bounds were set here for any values at or beyond the usual limits of such assays
experimental.parameters: source organism: SARS coronavirus Tor2
parameter: log10 of Kd (log10 of the value in nM)

sequence.string: LLLEWLAEVV
result.number: -0.51
--
sequence.string: LMWFIISIV
result.number: 1.78
--
sequence.string: LIANIFTPLV
result.number: -0.40
--
sequence.string: YVVVHGYFT
result.number: 2.53
--
sequence.string: FLLFLVLIML
result.number: 3.20

###

system.tested: HLA-B*15:01
assay.details: IEDB peptide-MHC binding, purified MHC/competitive/fluorescence; filed as Kd, often an IC50 or EC50 that approximates it; bounds were set here for any values at or beyond the usual limits of such assays
experimental.parameters: source organism: Vibrio antiquarius

sequence.string: SLTIPSFYT
Kd: ≥ 20 µM

###

Let's look at some sequences and their measured Kd.
system.tested: HLA-B*57:01
assay.details: IEDB peptide-MHC binding, purified MHC/competitive/radioactivity; filed as Kd, often an IC50 or EC50 that approximates it; bounds were set here for any values at or beyond the usual limits of such assays
experimental.parameters: source organism: Dengue virus 1 Brazil/97-11/1997
parameter: Kd (nM)

sequence.string: GASTSQETW
system.tested: HLA-B*57:01
parameter: Kd
result.number: 10.2
//
sequence.string: SATRLENIMW
system.tested: HLA-B*57:01
parameter: Kd
result.number: 11.7
//
sequence.string: ESDPEGALW
system.tested: HLA-B*57:01
parameter: Kd
result.number: 391

###

system.tested: HLA-C*14:02
assay.details: IEDB peptide-MHC binding, purified MHC/direct/fluorescence; filed as Kd, often an IC50 or EC50 that approximates it; bounds were set here for any values at or beyond the usual limits of such assays
experimental.parameters: source organism: Salmonella enterica subsp. enterica serovar Paratyphi B str. SPB7
pKd: −log10 of the molar value.
parameter: pKd

sequence.string: SVFTGLLPF
result.number: 6.25

###

system.tested: HLA-B*44:03
assay.details: IEDB peptide-MHC binding, purified MHC/competitive/radioactivity; filed as Kd, often an IC50 or EC50 that approximates it; bounds were set here for any values at or beyond the usual limits of such assays
experimental.parameters: source organism: Lassa virus Josiah

sequence.string: AEAQMSIQLI
system.tested: HLA-B*44:03
Kd / nM: 69.1

###

system.tested: HLA-B*58:01
assay.details: IEDB peptide-MHC binding, purified MHC/direct/fluorescence; filed as Kd, often an IC50 or EC50 that approximates it; bounds were set here for any values at or beyond the usual limits of such assays
experimental.parameters: source organism: Bacillus anthracis
pKd: −log10 of the molar value.
parameter: pKd

sequence.string: TVIRFWHAM
system.tested: HLA-B*58:01
result.number: 7.13

###

system.tested: HLA-A*02:19
assay.details: IEDB peptide-MHC binding, purified MHC/direct/fluorescence; filed as Kd, often an IC50 or EC50 that approximates it; bounds were set here for any values at or beyond the usual limits of such assays
experimental.parameters: source organism: Brucella suis 1330
parameter: Kd

sequence.string: QAHMGIAGL
parameter: Kd
result: ≥ 20 µM

###

system.tested: HLA-A*69:01
assay.details: IEDB peptide-MHC binding, purified MHC/direct/fluorescence; filed as Kd, often an IC50 or EC50 that approximates it; bounds were set here for any values at or beyond the usual limits of such assays
experimental.parameters: source organism: Homo sapiens
parameter: Kd (µM)

sequence.string: EPEPHILLF
result.number: 7.05

sequence.string: STDHIPILY
result.number: 7.42

sequence.string: RPAKSMDSL
result.number: 5.06

###

system.tested: HLA-B*48:01
assay.details: IEDB peptide-MHC binding, purified MHC/competitive/fluorescence; filed as Kd, often an IC50 or EC50 that approximates it; bounds were set here for any values at or beyond the usual limits of such assays
experimental.parameters: source organism: Listeria monocytogenes EGD-e
pKd: −log10 of the molar value.

sequence.string: RMMGKTNPL
system.tested: HLA-B*48:01
pKd: 7.01

###

system.tested: HLA-A*03:01
assay.details: IEDB peptide-MHC binding, purified MHC/direct/fluorescence; filed as Kd, often an IC50 or EC50 that approximates it; bounds were set here for any values at or beyond the usual limits of such assays
experimental.parameters: source organism: West Nile virus
pKd: −log10 of the molar value.
parameter: pKd

sequence.string: TEGEGRVIL
result: ≤ 4.70
//
sequence.string: GHGTVVLEL
result: ≤ 4.70
//
sequence.string: KCRVKMEKL
result: ≤ 4.70

###

system.tested: HLA-A*69:01
assay.details: IEDB peptide-MHC binding, purified MHC/direct/fluorescence; filed as Kd, often an IC50 or EC50 that approximates it; bounds were set here for any values at or beyond the usual limits of such assays
experimental.parameters: source organism: West Nile virus

sequence.string: TEGEGRVIL
system.tested: HLA-A*69:01
Kd: ≥ 20 µM

sequence.string: RLARAIIEL
system.tested: HLA-A*69:01
Kd: 3.79 µM

sequence.string: KCRVKMEKL
system.tested: HLA-A*69:01
Kd: ≥ 20 µM

sequence.string: GHGTVVLEL
system.tested: HLA-A*69:01
Kd: ≥ 20 µM

###

system.tested: HLA-A*29:02
assay.details: IEDB peptide-MHC binding, purified MHC/direct/fluorescence; filed as Kd, often an IC50 or EC50 that approximates it; bounds were set here for any values at or beyond the usual limits of such assays
experimental.parameters: source organism: Vibrio cholerae O395
pKd: −log10 of the molar value.
parameter: pKd

sequence.string: VVSEIDLQW
system.tested: HLA-A*29:02
parameter: pKd
result: ≤ 4.70

###

system.tested: HLA-B*40:01
assay.details: IEDB peptide-MHC binding, purified MHC/direct/fluorescence; filed as Kd, often an IC50 or EC50 that approximates it; bounds were set here for any values at or beyond the usual limits of such assays
experimental.parameters: source organism: Escherichia coli
pKd: −log10 of the molar value.

sequence.string: TVANNPDDK
pKd: ≤ 4.70

###

system.tested: HLA-A*68:02
assay.details: IEDB peptide-MHC binding, purified MHC/competitive/fluorescence; filed as Kd, often an IC50 or EC50 that approximates it; bounds were set here for any values at or beyond the usual limits of such assays
experimental.parameters: source organism: Vaccinia virus Tian Tan

sequence.string: REVFYFGKF
Kd: 3.04 µM

###

system.tested: HLA-B*08:02
assay.details: IEDB peptide-MHC binding, purified MHC/direct/fluorescence; filed as Kd, often an IC50 or EC50 that approximates it; bounds were set here for any values at or beyond the usual limits of such assays
experimental.parameters: source organism: Vibrio cholerae V52

sequence.string: FPLTQRDVL
system.tested: HLA-B*08:02
Kd: ≥ 20 µM

// provenance: the Immune Epitope Database (IEDB)
